- Target entity: cdc2/cyclinB (Homo sapiens)
- Assay comment: Cyclin-Dependent Kinase Assay cdc2/cyclinB
Test readout: IC50 (nM)

>>> recorded_value("CCCn1c(=O)ccc2cnc(Nc3ccc(Br)c(C(F)(F)F)c3)nc21")
429

[a] CC(C)n1c(=O)ccc2cnc(Nc3ccc(F)c(F)c3)nc21
[b] CCCCn1c(=O)ccc2cnc(Nc3ccc(O)cc3F)nc21
IN: Lab note: record which item had the higher IC50, a or b . API: response body contains the label of the selected item.
OUT: b

###

- Target entity: cdc2/cyclinB (Homo sapiens)
- Assay comment: Cyclin-Dependent Kinase Assay cdc2/cyclinB
Test readout: IC50 (nM)

Past entries and their recorded results:
>>> recorded_value("CCC(CC)n1c(=O)ccc2cnc(Nc3ccc(F)cc3F)nc21 [Example 483]")
731
>>> recorded_value("O=c1ccc2cnc(Nc3ccc4[nH]c5ccccc5c4c3)nc2n1CC1CC1 [Example 582]")
280
>>> recorded_value("CCCCn1c(=O)ccc2cnc(Nc3ccc4[nH]ncc4c3)nc21 [Example 379]")
43
>>> recorded_value("CCCn1c(=O)ccc2cnc(Nc3ccc4c(c3)CCN4)nc21 [Example 357]")
2100

[A] CC1Nc2ccc(Nc3ncc4ccc(=O)n(CC5CC5)c4n3)cc2C1C (stereo not drawn) [Example 580]
[B] CCCn1c(=O)ccc2cnc(Nc3ccc(OC)c(Cl)c3)nc21 [Example 310]
[C] CCCn1c(=O)ccc2cnc(Nc3ccc(F)c(C)c3)nc21 [Example 337]
IN: Ascending by IC50, please. Write the labels out in the order the request specifies.
OUT: A, C, B

[P] COc1ccc(Nc2ncc3ccc(=O)n(C4CCCC4)c3n2)cc1OC [Example 541]
[Q] CCC(C)n1c(=O)ccc2cnc(Nc3ccc(C#N)cc3)nc21 (stereo not drawn) [Example 474]
IN: Input pair: P , Q . Output: entry with lower IC50. API: response body contains the label of the selected item.
OUT: P
(P: 59.5 nM, Q: 240 nM)

###

- Target entity: cdk2/cyclinA (Homo sapiens)
- Assay comment: Cyclin-Dependent Kinase Assay cdk2/cyclinA
- Condition parameters: cdk2/A IC50, Table 1
pIC50: −log10 of the molar value.
Test readout: pIC50

[A] O=c1ccc2cnc(Nc3ccc(N4CCC(CCO)CC4)cc3)nc2n1C1CC2CCC1C2 (stereo not shown)
[B] O=c1ccc2cnc(Nc3ccc(N4CCCC4)cc3)nc2n1C1CCCCC1
IN: Input pair: A , B . Output: entry with lower pIC50. API: response body contains the label of the selected item.
OUT: A

###

- Target entity: cdc2/cyclinB (Homo sapiens, UniProt P06493)
- Sequence (P06493 whole entry): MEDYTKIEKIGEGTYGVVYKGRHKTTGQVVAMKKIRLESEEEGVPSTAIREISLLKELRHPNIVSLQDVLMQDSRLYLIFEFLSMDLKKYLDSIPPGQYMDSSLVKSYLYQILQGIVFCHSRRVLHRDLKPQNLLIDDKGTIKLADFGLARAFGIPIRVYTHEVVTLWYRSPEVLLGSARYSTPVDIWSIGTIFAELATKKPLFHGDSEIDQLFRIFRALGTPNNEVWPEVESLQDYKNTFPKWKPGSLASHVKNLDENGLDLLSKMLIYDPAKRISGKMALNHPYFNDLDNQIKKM
- Sequence (P14635 whole entry, further chain): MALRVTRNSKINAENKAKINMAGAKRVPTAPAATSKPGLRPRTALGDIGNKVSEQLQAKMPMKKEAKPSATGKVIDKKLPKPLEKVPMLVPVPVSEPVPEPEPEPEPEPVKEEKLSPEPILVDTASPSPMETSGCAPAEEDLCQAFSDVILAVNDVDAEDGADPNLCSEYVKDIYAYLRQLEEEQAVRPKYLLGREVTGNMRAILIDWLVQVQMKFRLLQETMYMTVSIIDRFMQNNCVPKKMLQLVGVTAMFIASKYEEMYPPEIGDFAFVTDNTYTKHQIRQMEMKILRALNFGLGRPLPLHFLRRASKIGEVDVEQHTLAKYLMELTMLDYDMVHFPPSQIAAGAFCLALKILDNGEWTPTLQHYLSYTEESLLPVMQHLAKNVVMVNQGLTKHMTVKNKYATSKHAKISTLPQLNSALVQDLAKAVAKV
- Assay comment: Cyclin-Dependent Kinase Assay cdc2/cyclinB
Test readout: IC50 (nM)

>>> recorded_value("CC(C)n1c(=O)ccc2cnc(Nc3ccc(S(N)(=O)=O)cc3)nc21")
90
>>> recorded_value("CCCCn1c(=O)ccc2cnc(Nc3ccc4[nH]nnc4c3)nc21")
59

[I] CCCCn1c(=O)ccc2cnc(Nc3ccc(OC)c(OC)c3)nc21
[II] CCCCn1c(=O)ccc2cnc(Nc3ccc(I)c(Cl)c3)nc21
[III] CCCn1c(=O)ccc2cnc(Nc3ccc4cn[nH]c4c3)nc21
IN: Sort these compounds on IC50 so the largest reading comes first. Write the labels out in the order the request specifies.
OUT: II, III, I
(II: 420 nM, III: 160 nM, I: 83 nM)

###

- Target entity: cdk2/cyclinE (Homo sapiens)
- Assay comment: Cyclin-Dependent Kinase Assay cdk2/cyclinE
- Condition parameters: cdk2/E IC50
Test readout: IC50 (nM)

>>> recorded_value("O=c1ccc2cnc(Nc3ccc4[nH]ccc4c3)nc2n1CC1CC1")
103

[A] CCC(C)n1c(=O)ccc2cnc(Nc3cc(C(F)(F)F)ccc3F)nc21 (stereo not shown)
[B] O=c1ccc2cnc(Nc3cc([N+](=O)[O-])ccc3F)nc2n1CC1CC1
[C] CC(C)n1c(=O)ccc2cnc(Nc3ccc(F)c(Cl)c3)nc21
IN: Sort these compounds on IC50 so the largest reading comes first. Write the labels out in the order the request specifies.
OUT: A, C, B

###

- Target entity: cdk4/D (Homo sapiens, UniProt P11802)
- Sequence (P11802 whole entry): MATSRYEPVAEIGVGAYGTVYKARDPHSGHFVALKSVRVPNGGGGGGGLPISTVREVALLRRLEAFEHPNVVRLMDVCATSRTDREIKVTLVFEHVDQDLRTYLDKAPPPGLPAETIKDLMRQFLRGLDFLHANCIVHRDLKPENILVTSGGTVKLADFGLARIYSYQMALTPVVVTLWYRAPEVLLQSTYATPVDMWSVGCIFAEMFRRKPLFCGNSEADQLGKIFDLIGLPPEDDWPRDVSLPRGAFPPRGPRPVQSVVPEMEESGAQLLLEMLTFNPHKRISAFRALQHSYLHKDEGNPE
- Sequence (P24385 whole entry, further chain): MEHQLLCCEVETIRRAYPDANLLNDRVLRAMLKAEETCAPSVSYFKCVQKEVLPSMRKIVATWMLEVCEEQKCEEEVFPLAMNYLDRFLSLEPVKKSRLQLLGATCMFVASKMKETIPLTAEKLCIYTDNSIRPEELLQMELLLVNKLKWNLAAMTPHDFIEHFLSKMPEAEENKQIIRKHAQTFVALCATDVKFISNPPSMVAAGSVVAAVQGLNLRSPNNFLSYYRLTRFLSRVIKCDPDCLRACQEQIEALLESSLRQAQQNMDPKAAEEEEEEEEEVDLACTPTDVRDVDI
- Assay comment: Cyclin-Dependent Kinase 4 (cdk4) Assay
- Type: biochemical
- Condition parameters: read-out: cdk4/D IC50
Test readout: IC50 (nM)

>>> recorded_value("CCCCn1c(=O)ccc2cnc(Nc3cc([N+](=O)[O-])ccc3F)nc21")
490
>>> recorded_value("CCCCn1c(=O)ccc2cnc(Nc3cc(Cl)cc(Cl)c3)nc21")
515
>>> recorded_value("O=c1ccc2cnc(Nc3ccc4[nH]nnc4c3)nc2n1CC1CC1")
505

###

- Target entity: cdc2/cyclinB (Homo sapiens, UniProt P06493)
- Assay comment: Cyclin-Dependent Kinase Assay cdc2/cyclinB
Test readout: IC50 (nM)

Past entries and their recorded results:
>>> recorded_value("CCn1c(=O)ccc2cnc(Nc3ccc(S(N)(=O)=O)cc3)nc21 [Example 295]")
390
>>> recorded_value("CCC(CC)n1c(=O)ccc2cnc(Nc3ccc(OC)c(F)c3)nc21 [Example 505]")
73
>>> recorded_value("CCCCn1c(=O)ccc2cnc(Nc3ccc4c(c3)CCCC4=O)nc21 [Example 403]")
73
>>> recorded_value("CCCCn1c(=O)ccc2cnc(Nc3ccc(Cl)c(C(F)(F)F)c3)nc21 [Example 401]")
1900
>>> recorded_value("CCC(CC)n1c(=O)ccc2cnc(Nc3ccc(NC(=O)OC(C)(C)C)cc3)nc21 [Example 494]")
102

[a] CC(C)n1c(=O)ccc2cnc(Nc3ccc4[nH]ccc4c3)nc21 [Example 409]
[b] O=c1ccc2cnc(Nc3ccc(OC(F)(F)F)cc3)nc2n1CC1CC1 [Example 591]
[c] CCCCn1c(=O)ccc2cnc(Nc3ccc(C)c(Cl)c3)nc21 [Example 400]
[d] O=c1ccc2cnc(Nc3ccc(N4CCCCC4CO)cc3)nc2n1C1CC2CCC1C2 (stereo not drawn) [Example 253]
IN: Ascending by IC50, please. Write the labels out in the order the request specifies.
OUT: c, a, d, b
(c: 120 nM, a: 260 nM, d: 670 nM, b: 3900 nM)

###

- Target entity: cdk4/D (Homo sapiens)
- Assay comment: Cyclin-Dependent Kinase 4 (cdk4) Assay
- Format: biochemical
- Condition parameters: read-out: cdk4/D IC50
pIC50: −log10 of the molar value.
Test readout: pIC50

Past entries and their recorded results:
>>> recorded_value("CCC(C)n1c(=O)ccc2cnc(Nc3ccc(C#N)cc3)nc21 (stereo not drawn)")
6.68
>>> recorded_value("CCCn1c(=O)ccc2cnc(Nc3ccc(F)c([N+](=O)[O-])c3)nc21")
5.92
>>> recorded_value("CCCn1c(=O)ccc2cnc(Nc3ccc(OC(F)(F)F)c(Br)c3)nc21")
5.72
>>> recorded_value("O=c1ccc2cnc(Nc3ccc(OC(F)(F)F)cc3)nc2n1CC1CC1")
6.68
>>> recorded_value("CCCn1c(=O)ccc2cnc(Nc3cccc(I)c3)nc21")
6.31

[P] Cn1c(=O)ccc2cnc(Nc3ccc4[nH]ccc4c3)nc21
[Q] CCC(CC)n1c(=O)ccc2cnc(Nc3ccc(C#N)cc3)nc21
IN: Input pair: P , Q . Output: entry with lower pIC50. API: response body contains the label of the selected item.
OUT: P
(P: 5.87, Q: 6.73)

###

- Target entity: cdk4/D (Homo sapiens)
- Assay comment: Cyclin-Dependent Kinase 4 (cdk4) Assay
- Assay type: biochemical
- Condition parameters: read-out: cdk4/D IC50
pIC50: −log10 of the molar value.
Test readout: pIC50

Past entries and their recorded results:
>>> recorded_value("CC(C)n1c(=O)ccc2cnc(Nc3ccc4[nH]ccc4c3)nc21")
7.36
>>> recorded_value("O=c1ccc2cnc(Nc3ccc4c(c3)CCC4)nc2n1CC1CC1")
6.70
>>> recorded_value("CCC(CC)n1c(=O)ccc2cnc(Nc3ccc(C)c(NC(C)=O)c3)nc21")
6.44
>>> recorded_value("O=c1[nH]c2ccc(Nc3ncc4ccc(=O)n(CC5CC5)c4n3)cc2[nH]1")
6.64
>>> recorded_value("CCC(CC)n1c(=O)ccc2cnc(Nc3cc(F)cc(F)c3)nc21")
6.57

[a] CCC(CC)n1c(=O)ccc2cnc(Nc3ccc(OC)c(F)c3)nc21
[b] O=c1ccc2cnc(Nc3ccc4[nH]c5ccccc5c4c3)nc2n1CC1CC1
IN: Lab note: record which item had the higher pIC50, a or b . API: response body contains the label of the selected item.
OUT: a

[I] CCCCn1c(=O)ccc2cnc(Nc3ccc4[nH]ccc4c3)nc21
[II] CC(C)n1c(=O)ccc2cnc(Nc3ccc(F)c(F)c3)nc21
IN: Lab note: record which item had the higher pIC50, I or II . API: response body contains the label of the selected item.
OUT: II

###

- Target entity: cdk4/D (Homo sapiens)
- Assay comment: Cyclin-Dependent Kinase 4 (cdk4) Assay
- Assay type: biochemical
- Condition parameters: read-out: cdk4/D IC50
pIC50: −log10 of the molar value.
Test readout: pIC50

Past entries and their recorded results:
>>> recorded_value("O=c1[nH]c2cc(Nc3ncc4ccc(=O)n(C5CCCC5)c4n3)ccc2o1 [Example 554]")
6.64
>>> recorded_value("O=c1ccc2cnc(Nc3ccc(C(F)(F)F)cc3)nc2n1C1CCCC1 [Example 533]")
6.82
>>> recorded_value("CCCCn1c(=O)ccc2cnc(Nc3ccc(F)cc3F)nc21 [Example 368]")
5.52

[a] CCCn1c(=O)ccc2cnc(Nc3ccc(OC)c(O)c3)nc21 [Example 336]
[b] CCC(C)n1c(=O)ccc2cnc(Nc3ccc(I)c(Cl)c3)nc21 (stereo not drawn) [Example 464]
[c] CC(=O)Nc1cc(Nc2ncc3ccc(=O)n(C4CCCC4)c3n2)ccc1C [Example 558]
IN: Sort these molecules on pIC50 so the largest reading comes first. Write the labels out in the order the request specifies.
OUT: c, b, a
(c: 7.52, b: 6.82, a: 5.62)

Attribution: patent US20040224958A1
